conditions: in formic acid, 323.15 K
observed.property: solubility (mole fraction)

[
  {
    "molecular.string": "[NH3+]O.[NH3+]O.[O-]n1nnnc1-c1nnnn1[O-]",
    "observed.property": "solubility (mole fraction)",
    "value": 0.00254
  }
]

====

conditions: in formic acid, 318.15 K

[
  {
    "molecular.string": "[NH3+]O.[NH3+]O.[O-]n1nnnc1-c1nnnn1[O-]",
    "solubility (mole fraction)": 0.00229
  }
]

====

conditions: in formic acid, 333.15 K

[
  {
    "molecular.string": "[NH3+]O.[NH3+]O.[O-]n1nnnc1-c1nnnn1[O-]",
    "solubility (mole fraction)": 0.00313
  }
]

====

details: in acetic acid, 333.15 K
observed.property: solubility (mole fraction)

[
  {
    "molecular.string": "[NH3+]O.[NH3+]O.[O-]n1nnnc1-c1nnnn1[O-]",
    "observed.property": "solubility (mole fraction)",
    "value": 0.000231
  }
]

====

conditions: in ethanol, 303.15 K

[
  {
    "molecular.string": "[NH3+]O.[NH3+]O.[O-]n1nnnc1-c1nnnn1[O-]",
    "solubility (mole fraction)": "1.54e-05"
  }
]

====

details: in acetic acid, 298.15 K
observed.property: solubility (mole fraction)

[
  {
    "molecular.string": "[NH3+]O.[NH3+]O.[O-]n1nnnc1-c1nnnn1[O-]",
    "value": "7.44e-05"
  }
]

====

conditions: in water, 318.15 K
observed.property: solubility (mole fraction)

[
  {
    "molecular.string": "[NH3+]O.[NH3+]O.[O-]n1nnnc1-c1nnnn1[O-]",
    "value": 0.000274
  }
]

====

settings: in water, 333.15 K

[
  {
    "molecular.string": "[NH3+]O.[NH3+]O.[O-]n1nnnc1-c1nnnn1[O-]",
    "solubility (mole fraction)": 0.000456
  }
]

====

conditions: in ethanol, 313.15 K
observed.property: solubility (mole fraction)

[
  {
    "molecular.string": "[NH3+]O.[NH3+]O.[O-]n1nnnc1-c1nnnn1[O-]",
    "value": "2.01e-05"
  }
]

====

conditions: in formic acid, 313.15 K

[
  {
    "molecular.string": "[NH3+]O.[NH3+]O.[O-]n1nnnc1-c1nnnn1[O-]",
    "solubility (mole fraction)": 0.00205
  }
]

====

settings: in formic acid, 308.15 K
observed.property: solubility (mole fraction)

[
  {
    "molecular.string": "[NH3+]O.[NH3+]O.[O-]n1nnnc1-c1nnnn1[O-]",
    "value": 0.00183
  }
]

====

conditions: in water, 298.15 K

[
  {
    "molecular.string": "[NH3+]O.[NH3+]O.[O-]n1nnnc1-c1nnnn1[O-]",
    "solubility (mole fraction)": 0.000128
  }
]

====

conditions: in ethanol, 308.15 K
observed.property: solubility (mole fraction)

[
  {
    "molecular.string": "[NH3+]O.[NH3+]O.[O-]n1nnnc1-c1nnnn1[O-]",
    "value": "1.76e-05"
  }
]

====

details: in acetic acid, 313.15 K

[
  {
    "molecular.string": "[NH3+]O.[NH3+]O.[O-]n1nnnc1-c1nnnn1[O-]",
    "solubility (mole fraction)": 0.000125
  }
]

====

conditions: in formic acid, 303.15 K
observed.property: solubility (mole fraction)

[
  {
    "molecular.string": "[NH3+]O.[NH3+]O.[O-]n1nnnc1-c1nnnn1[O-]",
    "value": 0.00163
  }
]

====

conditions: in acetic acid, 308.15 K

[
  {
    "molecular.string": "[NH3+]O.[NH3+]O.[O-]n1nnnc1-c1nnnn1[O-]",
    "solubility (mole fraction)": 0.000105
  }
]

====

conditions: in water, 323.15 K

[
  {
    "molecular.string": "[NH3+]O.[NH3+]O.[O-]n1nnnc1-c1nnnn1[O-]",
    "solubility (mole fraction)": 0.000325
  }
]

====

conditions: in ethanol, 318.15 K

[
  {
    "molecular.string": "[NH3+]O.[NH3+]O.[O-]n1nnnc1-c1nnnn1[O-]",
    "solubility (mole fraction)": "2.27e-05"
  }
]

====

conditions: in ethanol, 333.15 K
observed.property: solubility (mole fraction)

[
  {
    "molecular.string": "[NH3+]O.[NH3+]O.[O-]n1nnnc1-c1nnnn1[O-]",
    "observed.property": "solubility (mole fraction)",
    "value": "3.24e-05"
  }
]

====

conditions: in water, 308.15 K

[
  {
    "molecular.string": "[NH3+]O.[NH3+]O.[O-]n1nnnc1-c1nnnn1[O-]",
    "solubility (mole fraction)": 0.00019
  }
]

====

conditions: in water, 313.15 K

[
  {
    "molecular.string": "[NH3+]O.[NH3+]O.[O-]n1nnnc1-c1nnnn1[O-]",
    "solubility (mole fraction)": 0.000228
  }
]

====

settings: in acetic acid, 303.15 K

[
  {
    "molecular.string": "[NH3+]O.[NH3+]O.[O-]n1nnnc1-c1nnnn1[O-]",
    "solubility (mole fraction)": "8.86e-05"
  }
]

Origin of measurements: BigSolDB 2.1
